IC50 values, listed per item
Target: EhCS3 (Entamoeba histolytica)
Sequence (Q401L7 entry or part of it): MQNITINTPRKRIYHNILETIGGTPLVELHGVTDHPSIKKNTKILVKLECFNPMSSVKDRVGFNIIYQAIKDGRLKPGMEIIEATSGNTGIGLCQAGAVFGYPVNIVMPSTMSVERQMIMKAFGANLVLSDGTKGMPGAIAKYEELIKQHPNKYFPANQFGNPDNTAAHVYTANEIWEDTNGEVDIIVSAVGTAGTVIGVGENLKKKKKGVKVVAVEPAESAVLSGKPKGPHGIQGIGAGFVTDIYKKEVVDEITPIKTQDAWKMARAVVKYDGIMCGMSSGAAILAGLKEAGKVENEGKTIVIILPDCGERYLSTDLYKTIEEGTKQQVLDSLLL
Assay: CS inhibitory activity, recombinant EhCS3 (acid-ninhydrin cysteine detection)
Assay type: biochemical
Details: recombinant EhCS3, 15 min at 37°C, 2 mM O-acetyl-L-serine, 2 mM Na2S; read-out: IC50 CS3

CCC[C@H]1O[C@H](CC(=O)O)CC2=C1C(=O)c1c(O)cccc1C2=O [Deoxyfrenolicin] | 53 µM
Cc1cc(=O)c2c(o1)-c1c(cc(O)c(O)c1C(=O)O)OC2 [Citromycetin] | > 1400 µM

Prompt: Find the measured IC50: item Cc1c(O)cc2c(c1O)CO[C@@]1(CCCO1)C2=O [Terreinol] , target or system EhCS3 (Entamoeba histolytica).
Response: > 1600 µM

Prompt: Find the measured IC50: item COc1cc(C)c(-c2cc(OC)cc3c2C(=O)C2=C(C3=O)C(C)(C)c3cc(O)cc(O)c3C2=O)c(OC)c1 [Naphthacemycin A9] , target or system EhCS3 (Entamoeba histolytica).
Response: > 490 µM
